SYSTEM_TESTED: Glucose transporter (Leishmania mexicana)
ASSAY_REMARKS: ST_JUDE_LEISH: Cytotoxicity at 2uM final concentration against transgenic Leishmania Mexicana promastigotes LmGT2 that are glucose transport deficient and complemented with the L. Mexicana glucose transporter 2. Activity is measured by DNA content using SYBR green in vitro
Format: functional
// reported inhibition for each item listed
Number only, in %; omit the unit.

Previously resolved entries follow.
COc1ccc2c(c1CCNCCCCNCCc1c(OC)ccc3c1CCCC3)CCCC2
52.9
O=C(Nc1cccc(F)c1)N(Cc1ccc(-c2ccc(CN3CCNCC3)cc2)cc1)C1CCN(Cc2ccccc2)CC1
-1.59

Note inhibition for the compound shown: Nc1nnc(-c2ccc(Cl)c(Br)c2)c(N)n1
4.94

Recall and state the measured inhibition for CN1CCN(c2ccnc3ccc(NC(=O)Nc4ccc(-c5ccccc5)cc4)cc23)CC1 .
2.96

Consider the compound CCC1(c2ccccc2)N=C(N)N(CCCc2ccccc2)C1=O (stereo not drawn) . State its measured inhibition.
0.85

Give recorded inhibition. Cc1cc(N[C@@H](Cc2ccccc2)C(=O)NCc2cccc(F)c2)nc(Nc2ccccc2)n1
2.63

Entry Cc1cc(NC2CCN(CC3CCCCC3)C2)nc(Nc2ccc(Cl)cc2)n1 (stereo not drawn) needs its inhibition filled in; supply it.
2.63

Please give measured inhibition of the following entry: CC1(C)NC(N)=NC(=N)N1OCCOc1cccc(C(F)(F)F)c1
2.45

For the compound CC(C)(C)c1ccc(CN2CCC(NC(=O)c3cc(-c4cccc(C(F)(F)F)c4)cs3)C2)cc1 (stereo not drawn) , report inhibition.
1.98

Quickly give me recorded inhibition for CC(Cc1ccc(CNC(=O)NCc2ccc(CC(C)NCCc3cccc(Cl)c3)cc2)cc1)NCCc1cccc(Cl)c1 (stereo not drawn)
18.9

Output measured inhibition for this item: Clc1ccc(CCNCCCCCCNCCc2ccc3c(c2)OCO3)cc1
7.21

Input CCOc1ccc2nc3cc(NC(=O)c4ccco4)ccc3c(N)c2c1 , output reported inhibition.
2.78

Check the records and state inhibition for O=C(OCc1ccccc1)N1CCc2c([nH]c3ccccc23)C1CCC(F)(F)F (stereo not drawn)
0.12

Tell me measured inhibition for O=[N+]([O-])c1cccc(CNCC2CCN(Cc3ccc(C(F)(F)F)cc3)CC2)c1 please.
6.41

Assign inhibition to the following record: O=C(Nc1ccc(Br)c(Cl)c1)c1cc([N+](=O)[O-])cc2cn[nH]c12
1.08

* * *

SYSTEM_TESTED: Solute carrier family 2, facilitated glucose transporter member 1 (Homo sapiens) (UniProt P11166)
Sequence (P11166 whole entry): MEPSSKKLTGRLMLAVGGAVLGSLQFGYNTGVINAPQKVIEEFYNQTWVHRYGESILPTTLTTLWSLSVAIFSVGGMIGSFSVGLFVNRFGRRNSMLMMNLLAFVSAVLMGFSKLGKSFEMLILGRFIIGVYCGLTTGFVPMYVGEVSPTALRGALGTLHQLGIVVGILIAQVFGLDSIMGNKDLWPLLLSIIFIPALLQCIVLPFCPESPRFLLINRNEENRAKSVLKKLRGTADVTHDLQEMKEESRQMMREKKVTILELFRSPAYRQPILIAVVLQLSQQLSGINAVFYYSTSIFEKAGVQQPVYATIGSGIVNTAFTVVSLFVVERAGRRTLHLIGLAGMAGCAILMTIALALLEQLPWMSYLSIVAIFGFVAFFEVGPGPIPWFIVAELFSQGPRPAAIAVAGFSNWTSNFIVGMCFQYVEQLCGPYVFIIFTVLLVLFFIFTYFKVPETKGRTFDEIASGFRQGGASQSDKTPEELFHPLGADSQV
ASSAY_REMARKS: ST_JUDE_LEISH: Cytotoxicity at 2uM final concentration against transgenic Leishmania Mexicana promastigotes LmGLUT1 that are glucose transport deficient and complemented with the human glucose transporter GLUT1. Activity is measured by DNA content using SYBR green in vitro
Assay type: functional
TEST_READOUT: inhibition (%)
API: value field is a number in %; no unit string.

Report inhibition, nothing else, for this compound: COc1ccc2nccc([C@@H](O)CN3CCC(NS(=O)(=O)c4cc(Br)c(Br)s4)CC3)c2c1
3.72

Give the value of inhibition reported for the following: COc1ccc(C2CCC(NCCCCNC(=O)c3ccc(NC(=O)c4ccc(Cl)cc4)cc3)CC2)cc1 (centres undefined)
1.37

Identify measured inhibition corresponding to Cc1cccc2nc(-c3ccc(-c4ccc(NC(=O)Nc5ccc(Cl)c(Cl)c5)cc4)s3)[nH]c12
1.5

Supply reported inhibition belonging to this compound: O=C(NCC1CCN(CCN2CCC(c3cn(CCO)c4ccccc34)CC2)CC1)c1ccc(-c2ccc(C(F)(F)F)cc2)cc1
4.27

* * *

SYSTEM_TESTED: Glucose transporter (Leishmania mexicana)
ASSAY_REMARKS: ST_JUDE_LEISH: Cytotoxicity at 2uM final concentration against transgenic Leishmania Mexicana promastigotes LmGT2 that are glucose transport deficient and complemented with the L. Mexicana glucose transporter 2. Activity is measured by DNA content using SYBR green in vitro
Assay type: functional
TEST_READOUT: inhibition (%)
Please reply with the bare figure in % and do not write the unit itself.

Look over these answered cases.
CCN(CC)CCN(Cc1ccc(-c2ccc(C(F)(F)F)cc2)cc1)C(=O)Cn1cc(Cc2cnn(C)c2)c(=O)n2nc(-c3ccccc3)cc12
4.16
C/C(=C\C(=O)NC1CC1)c1ccccc1OCc1ccccc1
3.94
N#Cc1cccc(NC(=O)NC2CCN(CCCCCNC(=O)C3CC3c3ccc(Cl)c(Cl)c3)CC2)c1 (centres undefined)
1.85
CC(C)(C)c1ccc(NC(=O)c2ccc(CN3CCCN(Cc4cccc(O)c4)CC3)cc2)cc1
2.02
CCc1cccc(NC(=O)/C=C/c2ccc3c(c2)CN(C)CC3)c1
10.2
Cn1cnc(CCNC(=O)c2ccc(-c3cccc(-c4nc5cc(F)ccc5[nH]4)c3)cc2)c1
0.52

# return recorded inhibition for entry CCc1ccc(C2CCN(CCCCNC(=O)c3ccc(-c4ccc(Cl)cc4)cc3)CC2)c(O)c1
2.8

Note down inhibition recorded for Cc1ccc(CN2CCCN(Cc3cccc(NC(=O)c4cc5ccccc5s4)c3)CC2)cc1C
-0.17

Note down inhibition recorded for CCCCCCCN(Cc1ccc(OC(C)(C)C(=O)OCC)cc1)C(=O)Nc1ccccc1OCC
-2.13

Tell us which inhibition value is on record for CCN1CCC(N(CCCCCCCCc2ccc(C(F)(F)F)cc2)C(=O)Cn2c(CCc3cccc(F)c3F)cc(=O)c3ccccc32)CC1
4.76

Give the reported inhibition for this compound. COc1ccc(CNCc2cccc(-c3ccc(-c4nc5cccc(C)c5[nH]4)cc3)c2)cc1
7.5

Please give the documented inhibition of COc1ccc(CNCCc2cccs2)cc1-c1ccc(S(=O)(=O)NCCN2CCCC2)s1
4.66

Determine its reported inhibition: FC(F)(F)c1ccc2[nH]ccc(=NN=Cc3ccccc3Cl)c2c1
1.62

Report inhibition, nothing else, for this compound: COc1nc(NCC(C)C)nc(Oc2ccc(=O)n(Cc3ccccc3)n2)n1
3.48

Using the record for O=C(Nc1cccc(C(F)(F)F)c1)Nc1ccc(F)c([N+](=O)[O-])c1 , state its measured inhibition.
-0.74

For O=C(NCCCCN1CCC(c2ccc3c(c2OC(=O)c2ccc(NC(=O)c4ccc(Cl)cc4)cc2)CCCC3)CC1)c1ccc(NC(=O)c2ccc(Cl)cc2)cc1 , write its inhibition.
3.18

Supply inhibition value. Item: COc1ccc(-c2ccc(NC(=O)c3ccc(Cl)cc3)cc2)cc1CN(C)CCO
-0.68

Item CC(=O)N1CCC(C(=O)Nc2ccc(-c3cccc(-c4nc5cccc(C)c5[nH]4)c3)cc2)CC1 : provide inhibition
0.44

Give inhibition for CN(Cc1ccc(NC(=O)CCC2CCN(C(=O)/C=C/c3ccc(Cl)c(Cl)c3)CC2)cc1)C1CCOCC1
-1.91

* * *

SYSTEM_TESTED: Solute carrier family 2, facilitated glucose transporter member 1 (Homo sapiens)
ASSAY_REMARKS: ST_JUDE_LEISH: Cytotoxicity at 2uM final concentration against transgenic Leishmania Mexicana promastigotes LmGLUT1 that are glucose transport deficient and complemented with the human glucose transporter GLUT1. Activity is measured by DNA content using SYBR green in vitro
Format: functional
Measured inhibition accompanies every entry in the list below.
Number in %, nothing else.

Worked cases, answers included:
Nc1nc2c(ncn2COC2COP(=O)(O)OC2)c(=O)[nH]1 (stereo not drawn)
12.2
Cc1[nH]c(C)c(C(F)(F)F)c(=O)c1-c1ccc(Oc2ccc(OC(F)(F)F)cc2)cc1
2.24
Cc1cccc(NC(=O)c2ccc(C(=O)NC3CCN(CC4CCCCC4)CC3)cc2)c1
4.08
CCN1CCN(c2cc(C)c3cc(NC(=O)C=Cc4cccc(OC)c4OC)ccc3n2)CC1
5.91
Cc1cccc(OC(C)C(=O)Nc2cc(C(F)(F)F)ccc2N2CCOCC2)c1 (stereo not drawn)
2.38
CS(=O)(=O)c1ccc(CCNCc2ccc(-c3ccc(CN(C(=O)C4CCCC4)C4CCN(Cc5ccccc5)CC4)cc3)nc2)cc1
0.69

Supply inhibition value. Item: Cc1nc2ccc(-c3ccc(OC(F)(F)F)cc3)cc2c(O)c1C#N
-2.1

Retrieve inhibition measured for CCN(CC)CCN(Cc1ccc(-c2ccc(C(F)(F)F)cc2)cc1)C(=O)c1ccc(-c2ccc(NC(=O)OC)cc2C)cc1 and print it.
29.9

* * *

SYSTEM_TESTED: Hexose transporter 1 (Plasmodium falciparum) (UniProt O97467)
ASSAY_REMARKS: ST_JUDE_LEISH: Cytotoxicity at 2uM final concentration against transgenic Leishmania Mexicana promastigotes LmPfHT that are glucose transport deficient and complemented with the Plasmodium falciparum hexose transporter. Activity is measured by DNA content using SYBR green in vitro
Format: functional
TEST_READOUT: inhibition
Could you write the number and then its unit?

Return inhibition (reported value) for this compound: CCN(CC)CCN(Cc1ccc(-c2ccc(C(F)(F)F)cc2)cc1)C(=O)Cn1c(CCc2cccc(F)c2F)nc(=O)c2sccc21
1.36%

Give the measured inhibition for Cc1cc2nc(-c3ccc(C(=O)NC4CCN(Cc5ccccc5)CC4)cc3)[nH]c2cc1C
12.9%

Tell me measured inhibition for CCOc1cc(Cl)c(C(C)NC(=O)c2ccccc2)cc1OCC (centres undefined) please.
3.65%

Quote inhibition reported for CSc1nnc2n(Cc3ccccc3)c(=O)c3c(n12)-c1ccccc1CC31CCCCC1 please.
0.86%

Give inhibition for Cc1ccc(-n2c(C)nc3c(Nc4ccc(-c5ccncc5)cc4)ncnc32)c(C)c1
95.1%

Determine its reported inhibition: COc1ccc(CCNC(=O)c2ccc(-n3cc(NC(=O)c4cccnc4)cn3)cc2)cc1OC
3.85%

For the compound COc1ccc2ccc(F)c(CC(=O)N3CCOC(CNCc4cccc(-c5ccsc5)n4)C3)c2n1 (centres undefined) , give its reported inhibition.
6.66%

Assign inhibition to the following record: CC(C)n1ncc2c(C(=O)N3CCCCCC3)cc(-c3ccccc3)nc21
-0.92%

Tell me inhibition reported for CCOc1cccc(C(=O)Nc2ccc(-c3nc4ccccc4[nH]3)cc2)c1
3.79%

Cited source: ChEMBL document CHEMBL3433997
